- Tested on: HeLa S-3 cells
- TEST PROTOCOL: Inhibition of cell growth (GI50), sulforhodamine B staining
- Type: cell-based
- CONDITION DESCRIPTION: Homo sapiens, HeLa S3, HeLa cells, Table 5, carbocyclic congener; read-out: GI50 (Carbocic Congener)
REPORTED PROPERTY: GI50 (nM)

Worked cases, answers included:
CCN(CC)CCNc1ccc(CNS(C)(=O)=O)c2sc3ccccc3c(=O)c12 [drawing 103, reference compound] : 3000
CCN(CC)CCNc1ccc(CNC=O)c2sc3ccccc3c(=O)c12 [drawing 99, reference compound] : 3000

P: CCN(CC)CCNc1ccc(CNC(=O)OC)c2sc3ccccc3c(=O)c12 [drawing 105, reference compound]
Q: CCN(CC)CCNc1ccc(CN)c2sc3ccccc3c(=O)c12 [drawing 101, reference compound]
Select the item whose GI50 value is smaller, choosing between P and Q . Provide the label of your selected option as the answer.
Q

---

- System: HeLa S-3 cells
- TEST PROTOCOL: Inhibition of cell growth (GI50), sulforhodamine B staining
- Type: cell-based
- CONDITION DESCRIPTION: Homo sapiens, HeLa S3, 48 h, HeLa cells, 2 days of treatment, Table 4; read-out: GI50 Activity
REPORTED PROPERTY: GI50 (µM)

Solved entries:
CCN(CC)CCNc1ccc(CNS(C)(=O)=O)c2sc3ccncc3c(=O)c12 [drawing 84] : 0.4
CCN(CC)CCNc1ccc(CNC=O)c2sc3ccccc3c(=O)c12 [drawing 76] : 3

I: CCN(CC)CCNc1ccc(CN)c2sc3ccncc3c(=O)c12 [drawing 83]
II: CCN(CC)CCNc1cccc2sc3ccncc3c(=O)c12 [drawing 81]
III: CCN(CC)CCn1nc2c3c(cccc31)Sc1ccncc1-2
IV: CCN(CC)CCn1nc2c3c(cccc31)Sc1ccccc1-2
V: CCN(CC)CCNc1ccc(CNC(=O)OC)c2sc3ccncc3c(=O)c12
Arrange by GI50, high to low. Your answer should be the labels, listed in the requested order.
IV, II, III, I, V

---

- Tested on: HeLa S-3 cells
- TEST PROTOCOL: Inhibition of cell growth (GI50), sulforhodamine B staining
- Type: cell-based
- CONDITION DESCRIPTION: Homo sapiens, HeLa S3, 48 h, HeLa cells, 2 days of treatment, Table 4; read-out: GI50 Activity
REPORTED PROPERTY: GI50 (µM)

1: CCN(CC)CCNc1ccc(CNC=O)c2sc3ccncc3c(=O)c12 [drawing 82]
2: CCN(CC)CCn1nc2c3c(c(C=O)ccc31)Sc1ccccc1-2
Which is greater in GI50, the first item 1 or the second item 2 ? Indicate which entry you chose by stating its label.
2
(2: 2 µM, 1: 1 µM)

---

- Test system: HeLa S-3 cells
- TEST PROTOCOL: Inhibition of cell growth (GI50), sulforhodamine B staining
- Assay type: cell-based
- CONDITION DESCRIPTION: Homo sapiens, HeLa S3, 48 h, HeLa cells, 2 days of treatment, Table 4; read-out: GI50 Activity
REPORTED PROPERTY: GI50 (µM)

Example entries begin here.
CCN(CC)CCNc1ccc(CNC(=O)OC)c2sc3ccccc3c(=O)c12 [drawing 79] : 3
CCN(CC)CCn1nc2c3c(c(CNC=O)ccc31)Sc1ccncc1-2 : 0.2
CCN(CC)CCNc1ccc(C=O)c2sc3ccccc3c(=O)c12 : 2
CCN(CC)CCn1nc2c3c(c(CNC(=O)OC)ccc31)Sc1ccncc1-2 : 0.1
CCN(CC)CCn1nc2c3c(c(CN)ccc31)Sc1ccccc1-2 : 1
CCN(CC)CCNc1ccc(CNS(C)(=O)=O)c2sc3ccccc3c(=O)c12 [drawing 78] : 3
CCN(CC)CCNc1ccc(CN)c2sc3ccccc3c(=O)c12 [drawing 77] : 0.6
CCN(CC)CCn1nc2c3c(c(CNC=O)ccc31)Sc1ccccc1-2 : 1

a: CCN(CC)CCn1nc2c3c(c(CNS(C)(=O)=O)ccc31)Sc1ccccc1-2
b: CCN(CC)CCn1nc2c3c(c(CN)ccc31)Sc1ccncc1-2
c: CCN(CC)CCn1nc2c3c(c(CNC(=O)OC)ccc31)Sc1ccccc1-2
List items by GI50 in falling order. // rank by listing labels in the order requested
c, a, b

---

- Tested on: HeLa S-3 cells
- TEST PROTOCOL: Inhibition of cell growth (GI50), sulforhodamine B staining
- Format: cell-based
- CONDITION DESCRIPTION: Homo sapiens, HeLa S3, 48 h, HeLa cells, 2 days of treatment, Table 4; read-out: GI50 Activity
Below, each entry is listed alongside its reported GI50.

CCN(CC)CCN(N)c1ccc2c(=O)c3cnccc3sc2c1 : > 10 µM
CCN(CC)CCNc1cccc2sc3ccccc3c(=O)c12 [drawing 74] : > 10 µM

The record that follows has no GI50 shown yet.
Item CCN(CC)CCN(C)c1ccc2c(=O)c3cnccc3sc2c1 has what recorded GI50?
> 10 µM

Values were extracted from patent US20030212061A1.
